Where these numbers come from: the supplement of paper PMC7411054

- System: WPMY1-TUBA1B-RELA
- Assay info: lowest phenotypically active concentration; higher = less potent
- Condition label: treatment time: 24 h
Where a name gives a salt, the structure may show the parent alone.
Property measured: lowest phenotypically active concentration (µM)
Record the value in µM, omitting the unit from your answer.

Recorded results for 4 compounds are shown here.
[
  {
    "Compound": "Cc1noc(C)c1Cn1cc(C#N)c2cc(Oc3ccc(NC(=O)[C@@H]4CCCN4)cc3)ccc21",
    "Experimental result": 9
  },
  {
    "Compound": "COc1ccc(C[C@H](N)C(=O)N[C@H]2[C@@H](O)[C@H](n3cnc4c(N(C)C)ncnc43)O[C@@H]2CO)cc1 [Puromycin dihydrochloride]",
    "Experimental result": 1
  },
  {
    "Compound": "CC(C)N(CCCNC(=O)Nc1ccc(C(C)(C)C)cc1)C[C@H]1O[C@@H](n2cc(Br)c3c(N)ncnc32)[C@H](O)[C@@H]1O",
    "Experimental result": 9
  },
  {
    "Compound": "COc1cc(O)cc(O)c1C(=O)/C=C/c1ccccc1 [Cardamonin]",
    "Experimental result": 9
  }
]

Data request: Find the measured lowest phenotypically active concentration: item COc1cc2c(cc1OC)-c1c/c(=N/c3c(C)cc(C)cc3C)n(C)c(=O)n1CC2 [Trequinsin hydrochloride] , target or system WPMY1-TUBA1B-RELA.
Data returned: 9

Data request: Form field: lowest phenotypically active concentration recorded for O[C@H](CNC[C@H](O)[C@@H]1CCc2cc(F)ccc2O1)[C@@H]1CCc2cc(F)ccc2O1 [nebivolol] with WPMY1-TUBA1B-RELA (enter value)
Data returned: 3

Data request: Find the measured lowest phenotypically active concentration: item O=S(=O)(c1cccc2cnccc12)N1CCNCC1 , target or system WPMY1-TUBA1B-RELA.
Data returned: 3

Data request: Request body: readout lowest phenotypically active concentration, system WPMY1-TUBA1B-RELA, query NS(=O)(=O)c1nn2cc(-c3ccccc3)nc2s1 . Return the value.
Data returned: 9

Data request: What reported lowest phenotypically active concentration corresponds to Fc1ccc([C@@H]2CCNC[C@H]2COc2ccc3c(c2)OCO3)cc1 [paroxetine] on WPMY1-TUBA1B-RELA?
Data returned: 9

Data request: Which measured lowest phenotypically active concentration belongs to COc1cc(N2CCC(N)CC2)ccc1Nc1ncc(Cl)c(-c2c[nH]c3ccccc23)n1 , tested on WPMY1-TUBA1B-RELA?
Data returned: 1

Data request: Request body: readout lowest phenotypically active concentration, system WPMY1-TUBA1B-RELA, query CC(C)c1c(C(=O)Nc2ccccc2)c(-c2ccccc2)c(-c2ccc(F)cc2)n1CC[C@@H](O)C[C@@H](O)CC(=O)O [atorvastatin] . Return the value.
Data returned: 3
